# Test system: Trypanosoma cruzi
# assay.remarks: Antitrypanosomal activity against Trypanosoma cruzi Y strain epimastigotes assessed as parasite growth inhibition incubated for 48 hrs by spectrophotometric analysis
# Assay type: functional, organism-based
observation.type: IC50

NS(=O)(=O)c1ccc(O)c([N+](=O)[O-])c1: 97.7 µM

###

# Tested on: Trypanosoma brucei gambiense
# assay.remarks: Antitrypanosomal activity against bloodstream Trypanosoma brucei gambiense assessed as parasite growth inhibition measured after 72 hrs by resazurin staining based analysis
# Assay type: functional, organism-based
pIC50: −log10 of the molar value.
observation.type: pIC50

CCOC(=O)c1ccc(N/C=C2/SC(=O)N(C(Cc3ccccc3)C(=O)OCC)C2=S)cc1 (configuration not stated): 7.57
CCOC(=O)C(Cc1ccccc1)N1C(=O)S/C(=C/Nc2cc(S(=O)(=O)N3CCOCC3)ccc2C)C1=S (configuration not stated): 6.70

###

# Test system: Trypanosoma cruzi
# assay.remarks: Antitrypanosomal activity against Trypanosoma cruzi arequipa strain amastigotes assessed as parasite growth inhibition incubated for 48 hrs by resazurin staining based analysis
# Type: functional, organism-based
pIC50: −log10 of the molar value.
If the reported pIC50 equals or exceeds 6, assign 1. If not, assign -1.

O=C(Nc1ccc([Se][Se]c2ccc(NC(=O)c3cccs3)cc2)cc1)c1cccs1: -1
O=C(Nc1ccc([Se][Se]c2ccc(NC(=O)c3ccc(C(F)(F)F)cc3)cc2)cc1)c1ccc(C(F)(F)F)cc1: -1
O=C(Nc1ccc([Se][Se]c2ccc(NC(=O)c3ccco3)cc2)cc1)c1ccco1: -1
O=C(Nc1ccc([Se][Se]c2ccc(NC(=O)c3ccc([N+](=O)[O-])cc3)cc2)cc1)c1ccc([N+](=O)[O-])cc1: -1
N#C[Se]Cc1ccccc1[N+](=O)[O-]: 1
O=S(=O)(Nc1ccc([Se][Se]c2ccc(NS(=O)(=O)c3ccc(C(F)(F)F)cc3)cc2)cc1)c1ccc(C(F)(F)F)cc1: -1
Cc1ccc(C[Se]C#N)cc1: -1
Cc1ccc(S(=O)(=O)Nc2ccc([Se][Se]c3ccc(NS(=O)(=O)c4ccc(C)cc4)cc3)cc2)cc1: -1
N#Cc1ccc(C[Se][Se]Cc2ccc(C#N)cc2)cc1: 1

###

# assay.remarks: Selectivity index, ratio of CC50 for cytotoxicity against Swiss mouse peritoneal macrophages to IC50 for antitrypanosomal activity against bloodstream Trypanosoma cruzi Y strain trypomastigotes
# Format: toxicity
# recorded.conditions: read-out: Ratio CC50/IC50
Reported selectivity ratio by item:
observation.type: selectivity ratio

Fc1ccc(-c2nnc(N/N=C/c3ccccn3)s2)cc1: 6
C(=N\Nc1nnc(-c2ccccn2)s1)/c1ccccn1: 7.7

###

# Test system: Leishmania panamensis
# assay.remarks: Antileishmanial activity against Leishmania panamensis MHOM/CO/87/UA140-EpiR-GFP strain amastigotes assessed as inhibition of parasite growth incubated for 72 hrs by flow cytometric analysis
# Assay type: functional, organism-based
pIC50: −log10 of the molar value.
The reader will find reported pIC50 values listed item by item below.
observation.type: pIC50

COc1cc(C2=NN(c3ccccc3)C(c3sc(N(CCCl)CCCl)nc3Cl)C2)cc(OC)c1OC (stereo not drawn): 4.86
O=C1C=C(c2ccc(C(F)(F)F)cc2)S(=O)(=O)c2ccc(F)cc21: 5.17
ClCCN(CCCl)c1nc(Cl)c(C2CC(c3ccc(Br)cc3)=NN2c2ccccc2)s1 (stereo not drawn): 4.96

###

# Tested on: Trypanosoma cruzi
# assay.remarks: Antitrypanosomal activity against bloodstream Trypanosoma cruzi Y strain trypomastigotes assessed as parasite growth inhibition incubated for 24 hrs by Neubauer chamber based light microscopic analysis
# Format: functional, organism-based
pIC50: −log10 of the molar value.
observation.type: pIC50

Fc1ccc(-c2nnc(N/N=C/c3ccccn3)s2)cc1: 5.03
C(=N\Nc1nnc(-c2ccccn2)s1)/c1ccccn1: 5.02
